system: UACC-257; assay: NCI tumour cell line growth inhibition, 48 h
Activity calls are given as the source filed them. Cut-off read from the data, not from the text of the source: active = GI50 up to about 1.1 µM and inactive = higher.
Possible outcomes: class 1 = active, class 0 = inactive

INSERT INTO results (molecule, label_value) VALUES
  ('CO/C1=C\C(C)=C\C(C)C(O)C(C)C/C(C)=C/C=C/C(OC)C(C(C)C(O)C(C)C2(O)CC(O)C(C)C(C(C)C)O2)OC1=O (configuration not stated)', 'class 1'),
  ('CCN(CC)CCOC(c1ccccc1)c1ccccc1.CCOC(=O)Nc1ccc(S(=O)(=O)OC)cc1.CCOC(=O)Nc1ccc(S(=O)(=O)OC)cc1.Nc1ccc(C(=O)O)c(O)c1', 'class 0'),
  ('COc1cc2c(cc1OC)[Se]c1cc(OC)c(OC)cc1[Se]2', 'class 0'),
  ('CN(C)CC(CN(C)C)c1ccccn1', 'class 0'),
  ('O=C1c2ccccc2-c2c1c1ccccc1c(=O)n2CCO', 'class 0'),
  ('CCN(CCCl)c1cccc(NC(=O)c2ccc(C(=O)Nc3cccc(CN(C)C)c3)cc2)c1', 'class 1'),
  ('CC1(C)CCC2=C(O1)c1ccccc1/C(=N/c1ccc([N+](=O)[O-])cc1)C2=O', 'class 0');
